B1: glmS ribozyme (parent)
chain: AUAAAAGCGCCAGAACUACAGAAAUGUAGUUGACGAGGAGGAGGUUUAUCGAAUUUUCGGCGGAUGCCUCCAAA

variants of: B1; test: self-cleavage kobs at 2500 uM GlcN6P; higher = faster cleavage; RNA array; conditions: with glucosamine-6-phosphate
Variants at the floor of the assay were thinned out.
Listed here are variants together with their documented self-cleavage kobs at 2500 uM GlcN6P.
QUANTITY: self-cleavage kobs at 2500 uM GlcN6P

AUAAAAGCGGCAGAACUACAGAAAUGUAGUUGACGAGGAGGAGGUUCAUCGAUAUUUCGGCGGAUGCCUUCAAA [C10G U47C A53U U54A C70U]    < 1e-05 s⁻¹
AUAAAAGCGCCAGAACUACAGAAAUGUAGUUGACGUGGGGGAGGGUUAUCGAAUUUUCGGUCGAUGCCUCCAAA [A36U A39G U45G C61U G62C]    < 1e-05 s⁻¹
AUAAUAGCGCCAGAACUACAGAAAUGUAGUUGACGAGGAGGAGGUUUAUCGAAUUUUCGGCGGUUGCCUCCAAA [A5U A64U]    8.83e-05 s⁻¹
AUAAAAGCGCCAGAACUACAGAAAUGUAGUUGACGAGGAGGAGGUUUAUCGAAUUUUCUUCAGAUGCCUCCAAA [G59U G60U G62A]    < 1e-05 s⁻¹
AUAAAAGCGCCAGAACUACAGAAAUGUAGUUGACGAGGAGAAGGUUUAUCUAAUUUUCGGCGGAUGCCUCCAAA [G41A G51U]    < 1e-05 s⁻¹
AUAAAAGCGCUAGAACUACAGAAAUGUAGUUGACGAGGACGAAGUUUAUCGAAUUUUCGUCGGAUGCCGUCAAA [C11U G40C G43A G60U U69G C70U]    < 1e-05 s⁻¹
AUAAAAGCGCCAGAACUACAGAAAUGUAGUUGACCAGGAGGAGGUUUAUCGAAUUUUCGGCGGAUGCCUCUAAA [G35C C71U]    < 1e-05 s⁻¹
AUAAAAGGGCCAGAACUACAGAAAUGUAGUUGACGAGGAGGAGGUUUAUCGAAUUUUAGGCGGAUGACUCCAAA [C8G C58A C67A]    < 1e-05 s⁻¹
AUAAAAGCGCCAGAACUACAGAAAUGUAGUUGACGAGGGGGUGGUUUAUCGAAUUUUCGGCGGAUGUCUCCAAA [A39G A42U C67U]    9.25e-05 s⁻¹
AUAAAAGCCCCAGAACUACAGAAAUGUAGUUGACGAAGAGGAGGUAUAUCGUAUUUUCGAAGGAUGCCUCCAAA [G9C G37A U46A A52U G60A C61A]    < 1e-05 s⁻¹
AUAAAAGCGCCAGAACUACAGAAAUGUAAUUGACGAGGAGGAGGUUUAUCGAAUAUUCGGCGGAUGCCUCCAAA [G29A U55A]    0.00332 s⁻¹
AUAAAAUCGCCAGAACUACAGAAAUGUAUUUGACGAGGAGGAGGUUUCUCGAAUUUUCGGCGGAUGCCUCCAAA [G7U G29U A48C]    < 1e-05 s⁻¹
AUAAAAGCGCCGGAUCUACAGAAAUGUAGUUGACGAUGAGGGGGUUUAUCGAAUAUUCGGCGGAUGCCUCCAAA [A12G A15U G37U A42G U55A]    < 1e-05 s⁻¹
AUAAAAGCGUCCGAACUACAGAAAUGUAGUUGACGAGGAAGAGGUUUAUCGAAUUUUCGGCGGAUGCCUCCAAA [C10U A12C G40A]    < 1e-05 s⁻¹
AUAAAAGCGCCAGAACUACAGAAAUGUAGUUGACGAGGAGGAGGAUUAUCGAAUUUUCGGCGGAUGACUCCAAA [U45A C67A]    0.00568 s⁻¹
AUAAAAGCGCCAGAACUACAGAAAUGUAGUUGACGAGGAGGAGGUUUAUCGAAUUUUAGGCGGAUACCUCCAAA [C58A G66A]    9.9e-05 s⁻¹
AUAAAAGCGCCAGAAUUACAGAAAUGUAGUUGACGAGGAAGAGGUCUAUCGAAUUUUCGGCGGAUGCCUCCAAA [C16U G40A U46C]    0.000815 s⁻¹
AUAAAAGCGCCAGAACUACAGAAAUGUAGGUGACGAGGAGGAGGUUUAUCGAACUUUCGGCGGAUGCCUCCAAA [U30G U54C]    0.00471 s⁻¹
AUAAAAGCGCCAGAACUACAGAAAUGUAGUUGACGAGAAGGAGGUUUAUCGAAUUUUCGGACGAUGCCUCCAAA [G38A C61A G62C]    < 1e-05 s⁻¹
AUAAAAGCGCCAGAACUACAGAAAUGUAGUUGACGCAGAGGAGGUAUAUCGAAUUUUCGGCGGAUUCCUCCAAA [A36C G37A U46A G66U]    < 1e-05 s⁻¹
AUAAAAGCGCCAGAACUACAGAAAUGUAGUGGACGAGGAGGAGGUUUUUCGCAUUUUCGGCGGAUGCCUCCAAA [U31G A48U A52C]    < 1e-05 s⁻¹
AUAAAAGCGCCAUAACUACAGAAAUGUAGUUGACGAGGAGGAGGUUGAUCGAAAUUUCGGCAGAUGCCUCCAAA [G13U U47G U54A G62A]    < 1e-05 s⁻¹
AUAAAAGCGCCAGCACUACAGAAAUGUAGUUGACGAGGAGGAGUUUUAUCGAAUUUUCGGCGGAUGCCUCCAAA [A14C G44U]    3.7e-05 s⁻¹
AUAAAAGCGCCAGAACUACAGAAAUGUAGUUGACGAGGUGGAUGUUUAUCGAAUUUUCGGCGGAUGCCUCCAAA [A39U G43U]    0.000418 s⁻¹
